target: Solute carrier organic anion transporter family member 1B1 (Homo sapiens); conditions: chinese hamster, cho, 10 µM
Sequence (Q9Y6L6 whole entry): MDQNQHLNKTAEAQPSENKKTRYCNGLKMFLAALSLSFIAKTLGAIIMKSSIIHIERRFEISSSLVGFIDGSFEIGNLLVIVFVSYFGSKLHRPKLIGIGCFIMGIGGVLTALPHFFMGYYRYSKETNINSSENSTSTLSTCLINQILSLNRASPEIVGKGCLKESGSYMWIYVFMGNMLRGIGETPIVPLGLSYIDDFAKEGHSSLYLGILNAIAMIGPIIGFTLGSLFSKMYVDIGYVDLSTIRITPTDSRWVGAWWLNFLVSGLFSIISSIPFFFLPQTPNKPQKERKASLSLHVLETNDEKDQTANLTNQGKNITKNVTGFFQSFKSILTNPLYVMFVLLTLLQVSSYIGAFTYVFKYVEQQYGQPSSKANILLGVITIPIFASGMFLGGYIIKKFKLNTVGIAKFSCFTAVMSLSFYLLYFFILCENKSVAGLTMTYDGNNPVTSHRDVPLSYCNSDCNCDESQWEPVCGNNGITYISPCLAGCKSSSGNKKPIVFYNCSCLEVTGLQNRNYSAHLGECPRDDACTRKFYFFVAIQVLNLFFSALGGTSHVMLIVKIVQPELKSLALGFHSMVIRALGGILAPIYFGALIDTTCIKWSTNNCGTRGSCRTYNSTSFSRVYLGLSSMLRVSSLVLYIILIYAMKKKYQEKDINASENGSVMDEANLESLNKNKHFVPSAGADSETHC
Assign 1 whenever residual activity does not fall below 90%; assign -1 whenever it does.

Prompt: Threshold query (residual activity >= 90%) on C=CC1=C(C)c2cc3[nH]c(cc4nc(cc5[nH]c(cc1n2)c(C)c5CCC(=O)O)C(CCC(=O)O)=C4C)c(C)c3C=C [PROTOPORPHYRIN]
Completion: -1

Prompt: Please indicate if the recorded residual activity for COC(=O)[C@]1(C)CC[C@]2(C)CC[C@]3(C)C4=CC=C5C(=CC(=O)C(O)=C5C)[C@]4(C)CC[C@@]3(C)[C@@H]2C1 [PRISTIMERIN] meets or exceeds 90%.
Completion: 1

Prompt: State whether the measured residual activity reaches 90%, counting equality as reaching it, for O=C(OCc1ccccc1)c1ccccc1 [BENZYL BENZOATE]
Completion: 1

Prompt: Hi team, for CC(C)[C@@H](C)/C=C/[C@@H](C)[C@H]1CC[C@H]2C3=CCC4CC(=O)CC[C@]4(C)[C@H]3CC[C@]12C (stereo partly drawn) [ERGOSTA-7,22-DIEN-3-ONE] , is the recorded residual activity at or above 90%?
Completion: -1

Prompt: Would you say CC1COc2c(N3CCN(C)CC3)c(F)cc3c(=O)c(C(=O)O)cn1c23 (stereo not drawn) [OFLOXACIN] shows residual activity at minimum 90%?
Completion: -1

Prompt: Record COC(=O)Nc1nc2ccc(Sc3ccccc3)cc2[nH]1 [FENBENDAZOLE] ; criterion: residual activity no lower than 90%. Met?
Completion: 1
